Data origin, for the record: ChEMBL document CHEMBL3351652

Please respond with reported IC50 for every item in the list.
- tgt: GABA transporter 2 (Mus musculus, UniProt P31651)
- Sequence (P31651 whole entry): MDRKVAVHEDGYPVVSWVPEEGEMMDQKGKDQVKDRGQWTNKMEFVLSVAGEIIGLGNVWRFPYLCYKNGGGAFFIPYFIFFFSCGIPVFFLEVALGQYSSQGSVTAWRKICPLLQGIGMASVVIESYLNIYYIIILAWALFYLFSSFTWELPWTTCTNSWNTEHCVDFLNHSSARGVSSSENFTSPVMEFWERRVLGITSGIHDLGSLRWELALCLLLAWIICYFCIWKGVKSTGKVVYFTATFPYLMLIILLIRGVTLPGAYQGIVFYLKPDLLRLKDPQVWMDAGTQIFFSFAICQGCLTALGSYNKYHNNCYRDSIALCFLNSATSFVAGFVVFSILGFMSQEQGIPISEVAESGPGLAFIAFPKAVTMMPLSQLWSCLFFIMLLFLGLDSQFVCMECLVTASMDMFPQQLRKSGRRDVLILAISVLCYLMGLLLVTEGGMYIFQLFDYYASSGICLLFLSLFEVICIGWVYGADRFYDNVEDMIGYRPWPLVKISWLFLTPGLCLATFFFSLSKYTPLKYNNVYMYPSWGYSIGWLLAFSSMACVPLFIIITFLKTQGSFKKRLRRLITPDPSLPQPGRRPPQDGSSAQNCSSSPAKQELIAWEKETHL
- test.details: Inhibition of mouse GAT2 stably expressed in HEK293 assessed as inhibition of [3H]GABA uptake after 25 mins by liquid scintillation counting
Numbers only, in µM.

• O=C(O)[C@@H]1CCCN(CCOCCc2ccc(/N=N/c3cccc4ccccc34)cc2)C1 = 20.4
• O=C(O)C1CCCN(CCOCCc2ccccc2/N=N/c2ccccc2)C1 (stereo not given) = 234
• O=C(O)[C@@H]1CCCN(CCOCCc2cccc(/N=N/c3cccc4ccccc34)c2)C1 = 64.6

Now look at this entry.
Test system GABA transporter 2 (Mus musculus, UniProt P31651); read-out IC50; what value for O=C(O)C1CCCN(CCOCCc2cccc(/N=N/c3ccccc3)c2)C1 (stereo not given) ? 339
